# Test system: P388 leukemia ip, CD2F1 mice, survival T/C
# experimentNotes: NCI In Vivo Anticancer Drug Screen. Data for tumor model P388 Leukemia (intraperitoneal) in CD2F1 (CDF1) mice
# testSettings: endpoint: median survival time; dose: 25.0 mg/kg/injection; schedule: Q01DX009 (ip); vehicle: saline
# Procedure: The antitumor activity of compounds was measured in mice bearing transplantable tumors. Survival or tumor size were measured and the results are expressed as the measurement made in the treated group (T) divided by the measurement made in the vehicle treated control group (C). The tumor model used in this assay is P388 Leukemia (intraperitoneal) in CD2F1 (CDF1) mice
Inconclusive results and toxic doses are left out. How the source made its calls: active means survival T/C of 150% or more; inactive means T/C below 125% in these data.
Give one outcome, nothing more. List: active, inactive

COc1cc(N(CCCl)CCCl)ccc1NC(=O)c1ccccc1 | inactive

Attention now turns to another entry.
Fill in: this test's call for "CC1(C)N=C(N)N=C(N)N1c1ccc(OCCNS(=O)(=O)c2cccc(S(=O)(=O)F)c2)c(Cl)c1" is ___
active

* * *

# Test system: P388 leukemia ip, CD2F1 mice, survival T/C
# experimentNotes: NCI In Vivo Anticancer Drug Screen. Data for tumor model P388 Leukemia (intraperitoneal) in CD2F1 (CDF1) mice
# testSettings: endpoint: median survival time; dose: 50.0 mg/kg/injection; schedule: Q01DX009 (ip); vehicle: saline
Inconclusive results and toxic doses are left out. Rule for the calls: active = survival T/C of 150% or more; inactive = T/C below 125% in these data.
Give one outcome, nothing more. List: active, inactive

Example entries begin here.
CN(CC(=O)N1CCOCC1)Cc1c(Cl)cccc1NC(=O)c1ccccc1 | inactive
O=C1CC(=O)N2C=CC=CC2=N1 | inactive
CCN(CC)CC1(CC(=O)N2c3ccccc3Sc3ccccc32)COC1 | inactive
CC(C(=O)c1ccc(Cl)cc1)c1ccccc1 (centres undefined) | inactive
CN1CCN(c2ccc3nc(-c4ccc5nc(-c6ccc(O)cc6)[nH]c5c4)[nH]c3c2)CC1 | active
CC(=O)OCC1OC(n2cc(CBr)nn2)C(OC(C)=O)C(OC(C)=O)C1OC(C)=O (centres undefined) | active
COc1ccc(CSC(=S)Nc2cc(Cl)c(Cl)cc2Cl)cc1 | inactive
[Br][Rh][Br].[NH-]c1nc2ccc(Br)cc2s1.[NH-]c1nc2ccc(Br)cc2s1.[NH-]c1nc2ccc(Br)cc2s1.[NH-]c1nc2ccc(Br)cc2s1 | inactive
N#Cc1c(N)sc(=S)c2c1CCCC2 | inactive
CS(=O)(=O)OCCOS(C)(=O)=O | inactive

Fill in: this test's call for "CCN(CC)CCCNc1ccc([N+](=O)[O-])c2no[n+]([O-])c12" is ___
inactive

Fill in: this test's call for "CN(C)P(=O)(N(C)C)N1CCC1" is ___
inactive

Fill in: this test's call for CCC(O)CN(C)Cc1cc2c(c3ccccc13)CCCC2 (centres undefined) is ___
inactive

Fill in: this test's call for "c1ccc2c(c1)Nc1c(ccc3ccccc13)S2" is ___
inactive

Fill in: this test's call for C=CCC(NC(=O)CC)C(=O)O (centres undefined) is ___
inactive

* * *

# System: P388 leukemia ip, CD2F1 mice, survival T/C
# experimentNotes: NCI In Vivo Anticancer Drug Screen. Data for tumor model P388 Leukemia (intraperitoneal) in CD2F1 (CDF1) mice
# testSettings: endpoint: median survival time; dose: 50.0 mg/kg/injection; schedule: Q01DX009 (ip); vehicle: suspension in saline; higher = longer survival
Toxic doses and inconclusive results are not listed.
# Lookup of reported T/C keyed by entry

Observe how each entry below is paired with its result.
O=[N+]([O-])c1ccc(NN=C(CO)CO)c([N+](=O)[O-])c1 | 98 % of control
Oc1c(Cl)cc(Cl)cc1CN1CCOCC1 | 89 % of control
NC(Cc1ccccc1)P(=O)(O)O (configuration not stated) | 99 % of control
O=C1C=CC(=O)C(N(CCO)CCO)=C1 | 113 % of control
Cc1cc(N2C(=O)CCSC2=S)ccc1Br | 87 % of control
N#CC(C(O)c1ccccc1)N1CCCCC1 (configuration not stated) | 111 % of control
Nc1ccccc1Nc1ccncc1 | 100 % of control
CCCCCCOC(CN(C)C)C(Cl)(Cl)Cl (configuration not stated) | 97 % of control

Please find the next compound below.
For the compound shown here, "O=C1CSc2ccccc2N1" , give the reported T/C.
104 % of control
